Below are pKi values measured for UniProtKB P16257.
Sequence (P16257 whole entry, looked up): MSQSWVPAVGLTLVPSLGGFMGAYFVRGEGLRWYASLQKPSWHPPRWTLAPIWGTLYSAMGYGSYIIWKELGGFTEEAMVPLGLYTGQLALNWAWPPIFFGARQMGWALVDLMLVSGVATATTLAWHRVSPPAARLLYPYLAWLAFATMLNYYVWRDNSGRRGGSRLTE
pKi: −log10 of the molar value.
readoutKind: pKi

{"columns": ["chemSmiles", "reading"],
 "data": [
  ["CCCCN(CCCC)C(=O)C(=O)c1c(-c2ccc([N+](=O)[O-])cc2)[nH]c2ccccc12", 9.57],
  ["CCCCN(C)C(=O)C(=O)c1c(-c2ccccc2)[nH]c2ccccc12", 7.27],
  ["CCN(Cc1ccccc1)C(=O)C(=O)c1c(-c2ccc(Cl)cc2)[nH]c2ccccc12", 8.89],
  ["CCCCN(CCCC)C(=O)C(=O)c1c(-c2ccc(C(F)(F)F)cc2)[nH]c2ccccc12", 8.94],
  ["CCCCN(CCCC)C(=O)C(=O)c1c(-c2ccccc2)[nH]c2c(C)cccc12", 8.22],
  ["CCCCCCN(CCCCCC)C(=O)C(=O)c1c(-c2ccc(F)cc2)[nH]c2ccc(F)cc12", 9.02],
  ["CCCN(CCC)C(=O)C(=O)c1c(-c2ccccc2)[nH]c2c(Cl)cccc12", 7.85],
  ["CCCCN(CCCC)C(=O)C(=O)c1c(-c2ccc(F)cc2)[nH]c2ccc(Cl)cc12", 8.52],
  ["CCCCCCN(CCCCCC)C(=O)C(=O)c1c(-c2ccc(C(F)(F)F)cc2)[nH]c2ccccc12", 9.00],
  ["CCN(Cc1ccccc1)C(=O)C(=O)c1c(-c2ccc(C(F)(F)F)cc2)[nH]c2ccccc12", 9.00],
  ["CCCCCCN(CCCCCC)C(=O)C(=O)c1c(-c2ccc([N+](=O)[O-])cc2)[nH]c2ccccc12", 9.64],
  ["CCCCN(CCCC)C(=O)C(=O)c1c(-c2ccccc2)[nH]c2ccc([N+](=O)[O-])cc12", 7.67],
  ["CCN(Cc1ccccc1)C(=O)C(=O)c1c(-c2ccc(C)cc2)[nH]c2ccccc12", 8.58],
  ["CCCCCCN(CCCCCC)C(=O)C(=O)c1c(-c2ccc(F)cc2)[nH]c2ccc(Cl)cc12", 8.11]
]}
